System: Yap1 mRNA
Assay: Antisense inhibition of human Yap1 in A-431 cells by cEt gapmers, single dose (Example 3, RTS36584)
Format: cell-based
Details: Table 29; Yap1 mRNA as percent of untreated control; 3-10-3 cEt gapmers targeting SEQ ID NO.: 1, and 2
Strand notation (5' to 3'): a small letter for the sugar, then the base; units joined by * are phosphorothioate-linked, units joined directly phosphodiester-linked; [ ] holds rarer units or linkages, { } end groups; capitals alone tell only the bases. k = constrained ethyl (cEt); [5mC] = 5-methylcytosine; d = 2'-deoxy (DNA)
Rule: Met for YAP1 (% UTC) not less than 60 % UTC, Not met for anything less.

Use these answered entries as a reference point.
- substance: "1076431 (k[5mC]*kA*k[5mC]*d[5mC]*dA*dA*dT*dA*dG*dA*dA*d[5mC]*dA*kT*kA*kT; antisense) [compound 1076431]"
  cat: "Not met"
- substance: "1074639 (antisense kT*kA*kG*dA*dT*dT*dT*dT*dG*dT*dA*dA*dT*kT*kG*kG) [compound 1074639]"
  cat: "Not met"
- substance: "1074159 (k[5mC]*kG*kA*dG*d[5mC]*dG*dA*dG*dG*dG*d[5mC]*dT*dA*k[5mC]*kG*k[5mC]; antisense) [compound 1074159]"
  cat: "Met"

Ask | Check if YAP1 (% UTC) >= 60 % UTC (inclusive). Item: 1074959 (antisense kT*kT*kA*dA*d[5mC]*d[5mC]*d[5mC]*dG*dG*dG*dT*dT*dT*kT*kT*kG) [compound 1074959]
Reply | Met

Ask | Check if YAP1 (% UTC) >= 60 % UTC (inclusive). Item: 1075663 (antisense k[5mC]*kT*kA*dA*dA*dT*dA*dG*dG*dT*dG*dG*dT*kT*kA*kT) [compound 1075663]
Reply | Met

Ask | Check if YAP1 (% UTC) >= 60 % UTC (inclusive). Item: 1076463 (kG*kA*kT*dT*dA*dG*dT*dA*dA*d[5mC]*dA*d[5mC]*dT*kG*kA*kT; antisense) [compound 1076463]
Reply | Not met

Ask | Check if YAP1 (% UTC) >= 60 % UTC (inclusive). Item: 1075535 (kA*kA*kT*dT*dA*d[5mC]*d[5mC]*d[5mC]*dA*dA*dG*dG*dA*k[5mC]*kA*kG; antisense) [compound 1075535]
Reply | Not met

Ask | Check if YAP1 (% UTC) >= 60 % UTC (inclusive). Item: 1074543 (k[5mC]*k[5mC]*kT*dA*dG*dG*d[5mC]*dA*d[5mC]*dT*dA*dT*d[5mC]*k[5mC]*kA*k[5mC]; antisense) [compound 1074543]
Reply | Not met

Ask | Check if YAP1 (% UTC) >= 60 % UTC (inclusive). Item: 1075087 (antisense kT*k[5mC]*kT*d[5mC]*dA*dA*dT*dA*dA*dG*dT*dT*dA*kT*kA*kG) [compound 1075087]
Reply | Not met
